Field: TGI. Provide a value for each of the compounds that follow.
- Tested on: KM12 colon
- assay_details: NCI tumour cell line growth inhibition, 48 h

compound	TGI
C=CCc1cc(-c2nc(=S)[nH][nH]2)ccc1N=NNc1ccc(C(=O)O)cc1	> 100 µM
Cc1c(N(C)C)ccc2c(=O)c3cccc(CC(=O)O)c3oc12	> 100 µM

Pending compound:
O=S(=O)(O)C(CO)c1ccccc1 (stereo not drawn) (tested in a mixture with another compound) yielded TGI of > 100 µM

====

- System: COLO 205 colon
- assay_details: NCI tumour cell line growth inhibition, 48 h
Field: TGI. Provide a value for each of the molecules that follow.

input_smiles	TGI
CCNC(=S)NNC(=O)C12CC3CC(CC(C3)C1)C2	> 100 µM
COc1ccc(OCC(=O)O)c2c1CCCC2=O	> 100 µM

Pending molecule:
Entry CC(C)c1cc2c(c(O)c1O)[C@@]1(C(=O)O)CCCC(C)(C)[C@@H]1CC2 ; assay system COLO 205 colon; TGI recorded at > 100 µM
